biological target: Solute carrier organic anion transporter family member 2B1 (Homo sapiens, UniProt O94956); assay: Inhibition of human liver OATP2B1 expressed in HEK293 Flp-In cells assessed as reduction in [3H]E3S uptake incubated for 5 mins by scintillation counting
Sequence (O94956 whole entry): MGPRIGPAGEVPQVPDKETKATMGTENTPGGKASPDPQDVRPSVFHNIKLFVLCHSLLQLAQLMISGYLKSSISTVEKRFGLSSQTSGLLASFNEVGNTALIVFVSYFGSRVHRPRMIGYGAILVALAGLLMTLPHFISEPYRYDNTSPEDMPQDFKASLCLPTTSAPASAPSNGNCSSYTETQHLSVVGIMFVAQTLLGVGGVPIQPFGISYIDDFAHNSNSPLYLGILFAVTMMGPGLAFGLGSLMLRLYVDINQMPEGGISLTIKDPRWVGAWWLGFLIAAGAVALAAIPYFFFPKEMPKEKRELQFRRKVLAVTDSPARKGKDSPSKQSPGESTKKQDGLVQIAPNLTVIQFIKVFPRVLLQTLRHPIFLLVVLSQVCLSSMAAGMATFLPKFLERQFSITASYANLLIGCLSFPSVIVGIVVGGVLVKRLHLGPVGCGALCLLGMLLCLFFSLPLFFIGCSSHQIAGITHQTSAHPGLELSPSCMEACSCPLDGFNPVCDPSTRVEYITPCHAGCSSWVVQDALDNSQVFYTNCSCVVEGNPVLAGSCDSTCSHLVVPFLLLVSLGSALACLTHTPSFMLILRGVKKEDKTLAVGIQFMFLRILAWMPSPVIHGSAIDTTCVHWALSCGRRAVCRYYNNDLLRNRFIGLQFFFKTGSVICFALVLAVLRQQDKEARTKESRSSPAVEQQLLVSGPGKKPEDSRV
readout-type: pIC50
Answer as the number alone; pIC50 is minus log10 of concentration in mol/L.

Find the recorded pIC50 belonging to C#Cc1cccc(Nc2ncnc3cc(OCCOC)c(OCCOC)cc23)c1 [ERLOTINIB] and report it.
6.26

====

target: Solute carrier organic anion transporter family member 1B3 (Homo sapiens, UniProt Q9NPD5); experiment: Inhibition of human liver OATP1B3 expressed in HEK293 Flp-In cells assessed as reduction in [3H]E17-betaG uptake at 20 uM incubated for 5 mins by scintillation counting; details: hek293, 5 min
Sequence (Q9NPD5 whole entry): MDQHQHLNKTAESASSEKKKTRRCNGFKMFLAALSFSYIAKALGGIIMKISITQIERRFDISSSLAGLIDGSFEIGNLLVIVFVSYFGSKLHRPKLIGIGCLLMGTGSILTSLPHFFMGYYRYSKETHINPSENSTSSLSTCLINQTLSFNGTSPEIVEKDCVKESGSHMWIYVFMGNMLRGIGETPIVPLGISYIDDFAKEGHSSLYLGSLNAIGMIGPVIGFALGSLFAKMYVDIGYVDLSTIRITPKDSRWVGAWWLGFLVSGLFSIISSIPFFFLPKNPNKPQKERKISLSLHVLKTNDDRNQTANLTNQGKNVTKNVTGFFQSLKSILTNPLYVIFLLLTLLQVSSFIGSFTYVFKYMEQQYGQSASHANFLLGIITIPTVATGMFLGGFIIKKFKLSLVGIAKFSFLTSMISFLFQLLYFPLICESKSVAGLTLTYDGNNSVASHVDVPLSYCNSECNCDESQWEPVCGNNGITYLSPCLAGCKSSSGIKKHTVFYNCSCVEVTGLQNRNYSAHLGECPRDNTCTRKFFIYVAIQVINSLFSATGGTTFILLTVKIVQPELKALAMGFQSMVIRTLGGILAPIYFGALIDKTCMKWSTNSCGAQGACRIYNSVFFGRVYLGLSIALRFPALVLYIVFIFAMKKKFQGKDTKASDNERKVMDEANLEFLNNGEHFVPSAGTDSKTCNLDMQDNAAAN
Entries annotated with measured INH
Be sure to follow the number with its unit.

Solved entries:
Find the recorded INH belonging to CC[C@]1(O)C[C@@H]2CN(CCc3c([nH]c4ccccc34)[C@@](C(=O)OC)(c3cc4c(cc3OC)N(C)[C@H]3[C@@](O)(C(=O)OC)[C@H](OC(C)=O)[C@]5(CC)C=CCN6CC[C@]43[C@@H]65)C2)C1 and report it.
54.3%

Find the recorded INH belonging to NC12CC3CC(CC(C3)C1)C2 and report it.
10%

Find the recorded INH belonging to C#Cc1cccc(Nc2ncnc3cc(OCCOC)c(OCCOC)cc23)c1 and report it.
27.5%

More entries:
Find the recorded INH belonging to CN(Cc1cnc2nc(N)nc(N)c2n1)c1ccc(C(=O)N[C@@H](CCC(=O)O)C(=O)O)cc1 [METHOTREXATE] and report it.
17.2%

Find the recorded INH belonging to CCCCC(=O)N(Cc1ccc(-c2ccccc2-c2nnn[nH]2)cc1)[C@H](C(=O)O)C(C)C and report it.
33.7%

Find the recorded INH belonging to C[C@H](CCC(=O)NCC(=O)O)[C@H]1CC[C@H]2[C@@H]3[C@H](O)C[C@@H]4C[C@H](O)CC[C@]4(C)[C@H]3CC[C@]12C [GLYCOCHENODEOXYCHOLATE] and report it.
72%

Find the recorded INH belonging to CN(C)C(=O)C(CCN1CCC(O)(c2ccc(Cl)cc2)CC1)(c1ccccc1)c1ccccc1 [LOPERAMIDE] and report it.
32.4%

Find the recorded INH belonging to CN(CCOc1ccc(NS(C)(=O)=O)cc1)CCc1ccc(NS(C)(=O)=O)cc1 [DOFETILIDE] and report it.
19.9%

Find the recorded INH belonging to N[C@@H](Cc1cc(I)c(Oc2cc(I)c(O)c(I)c2)c(I)c1)C(=O)O and report it.
11.4%

Find the recorded INH belonging to COc1ccc2cc3[n+](cc2c1OC)CCc1cc2c(cc1-3)OCO2 and report it.
19.4%

Find the recorded INH belonging to CN1C(C(=O)Nc2ccccn2)=C(O)c2ccccc2S1(=O)=O and report it.
23.5%

Find the recorded INH belonging to Cc1ccc(C)c(OCCCC(C)(C)C(=O)O)c1 and report it.
14.4%

Find the recorded INH belonging to C[C@H](CCC(=O)NCC(=O)O)[C@H]1CC[C@H]2[C@@H]3[C@H](O)C[C@@H]4C[C@H](O)CC[C@]4(C)[C@H]3C[C@H](O)[C@]12C and report it.
29%
